test target: TAOK3 (human)
test description: radiometric filter-binding kinase assay, Kinase HotSpot
reported conditions: compound 0.5 µM; ATP 10 µM
outcome measure: residual activity (%)
Report as a plain number; the unit % is understood.

Lookup: Return residual activity (reported value) for this compound: `O=C1NC(=O)c2cc(Nc3ccc(F)cc3)c(Nc3ccc(F)cc3)cc21`
Found: 89.9

Lookup: Return residual activity (reported value) for this compound: `Nc1ncnc2c1cnn2-c1ccccc1`
Found: 89.1

Lookup: Return residual activity (reported value) for this compound: `N#Cc1c(NC(=O)c2cccc3ccccc23)sc2c1CCCC2`
Found: 90.2

Lookup: Return residual activity (reported value) for this compound: `O=c1c2ccccc2[nH]c(=S)n1CCN1CCC(=C(c2ccc(F)cc2)c2ccc(F)cc2)CC1`
Found: 92.4

Numbers sourced from the kinase profiling compilation of Christmann-Franck et al. (2016).
